# TARGET_DESC: mu opioid receptor (MOR) (Homo sapiens, UniProt P35372)
# Sequence (P35372 whole entry): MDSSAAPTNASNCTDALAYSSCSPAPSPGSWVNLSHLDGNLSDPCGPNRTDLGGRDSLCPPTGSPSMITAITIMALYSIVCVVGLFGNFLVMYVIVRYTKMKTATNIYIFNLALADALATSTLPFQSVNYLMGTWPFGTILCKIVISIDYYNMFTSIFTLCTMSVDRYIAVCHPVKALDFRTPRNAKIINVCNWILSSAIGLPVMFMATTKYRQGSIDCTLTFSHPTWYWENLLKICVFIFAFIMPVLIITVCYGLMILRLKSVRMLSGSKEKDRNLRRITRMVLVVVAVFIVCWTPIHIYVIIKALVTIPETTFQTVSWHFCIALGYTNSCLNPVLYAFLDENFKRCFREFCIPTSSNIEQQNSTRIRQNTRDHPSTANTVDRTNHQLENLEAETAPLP
# PROTOCOL_DETAILS: Hit Hunter cAMP signaling assay (adenylyl cyclase inhibition), PAM mode with EC20 endomorphin-1
# Format: cell-based
# COND: cAMP EC50, adenylyl cyclase inhibition
// values below are reported EC50

{"MOLECULE": "O=C1CCN(c2nc(Cl)ncc2F)C(c2cccc(C(F)(F)F)c2)C1 (centres unmarked)", "EC50": "> 2100 nM"}
{"MOLECULE": "Fc1cc(C2CCCCN2Cc2cccc(Cl)c2)cc(C(F)(F)F)c1 (centres unmarked)", "EC50": "> 2100 nM"}
{"MOLECULE": "Fc1ccc(C2CCCCN2c2nc(Cl)ncc2F)cc1 (centres unmarked)", "EC50": "700 to 2100 nM"}
{"MOLECULE": "Fc1ccc(C2C(F)CCCN2c2nc(Cl)ncc2F)cc1Br (centres unmarked) [compound 210]", "EC50": "700 to 2100 nM"}
{"MOLECULE": "Cc1c(C2CCCCN2c2nc(Cl)ncc2F)cccc1C(F)(F)F (centres unmarked)", "EC50": "< 700 nM"}
{"MOLECULE": "Fc1cc(C2CCCCN2Cc2cccc(Br)c2)cc(C(F)(F)F)c1 (centres unmarked)", "EC50": "> 2100 nM"}
{"MOLECULE": "Fc1ccc(C2CCCCN2c2nc(Cl)ncc2F)cc1F (centres unmarked)", "EC50": "700 to 2100 nM"}
{"MOLECULE": "OC1Cc2ccccc2C1N1CCCCC1c1ccc(F)c(Cl)c1 (centres unmarked)", "EC50": "> 2100 nM"}
{"MOLECULE": "Fc1cnc(Cl)nc1N1CCCCC1c1cc(C(F)(F)F)ccn1 (centres unmarked)", "EC50": "700 to 2100 nM"}
{"MOLECULE": "OC1CCC(c2cc(F)cc(C(F)(F)F)c2)N(c2nc(Cl)ncc2F)C1 (centres unmarked)", "EC50": "700 to 2100 nM"}
{"MOLECULE": "Fc1cc(C2C3CCC(C3)N2Cc2cc(Cl)ccc2F)cc(C(F)(F)F)c1 (centres unmarked)", "EC50": "> 2100 nM"}
{"MOLECULE": "Fc1ccc(C(F)(F)F)cc1C1CCCCN1c1ccnc(Cl)n1 (centres unmarked)", "EC50": "< 700 nM"}
{"MOLECULE": "COc1ccc(C2CCCCN2c2ncnc(Cl)c2F)cc1Br (centres unmarked)", "EC50": "> 2100 nM"}
{"MOLECULE": "COc1ccc(C2CCCCN2c2nc(Cl)c(C#N)cc2F)cc1Br (centres unmarked)", "EC50": "> 2100 nM"}
{"MOLECULE": "Fc1cc(C2CCCCN2c2nc(Cl)ncc2F)ccc1Br (centres unmarked)", "EC50": "< 700 nM"}
{"MOLECULE": "Fc1ccc(C2CC(F)(F)CCN2c2nc(Cl)ncc2F)cc1Br (centres unmarked)", "EC50": "700 to 2100 nM"}
{"MOLECULE": "COc1ccc(C2CCCCN2c2nc(Cl)ncc2OC)cc1Br (centres unmarked)", "EC50": "> 2100 nM"}
{"MOLECULE": "Fc1cnc(Cl)nc1N1CCCCC1c1ccc(Cl)c(Cl)c1 (centres unmarked)", "EC50": "< 700 nM"}
{"MOLECULE": "Fc1ccc(Cl)cc1C1CCCCN1c1nc(Cl)ncc1F (centres unmarked)", "EC50": "< 700 nM"}
{"MOLECULE": "Fc1cnc(Cl)nc1N1CCCCC1c1ccnc(Cl)c1 (centres unmarked)", "EC50": "< 700 nM"}
